Kindly state IC50, RGA 1 for each of the entries shown.
Target: T1, human IL-11 (human, UniProt P20809 22-199)
T1 sequence: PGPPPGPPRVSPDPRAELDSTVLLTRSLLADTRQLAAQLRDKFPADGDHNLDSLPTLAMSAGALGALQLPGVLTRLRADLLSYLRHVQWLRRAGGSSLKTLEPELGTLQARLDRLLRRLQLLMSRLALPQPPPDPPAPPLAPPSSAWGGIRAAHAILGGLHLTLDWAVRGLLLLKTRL
Test: cell-based or functional assay
// note: answer is a bare numeric in nM

Task: Query: IC50, RGA 1; subject: TPP-31304 (antibody, IgG4, V domains shown) VH: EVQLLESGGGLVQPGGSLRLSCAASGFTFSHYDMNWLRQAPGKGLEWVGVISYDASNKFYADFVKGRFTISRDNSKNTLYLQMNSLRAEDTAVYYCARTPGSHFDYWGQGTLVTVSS VL: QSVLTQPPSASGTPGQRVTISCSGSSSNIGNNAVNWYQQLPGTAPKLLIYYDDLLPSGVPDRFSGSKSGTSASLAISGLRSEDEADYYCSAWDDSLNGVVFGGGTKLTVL
Output: 104

Task: Same again, this time with TPP-31282 (antibody, IgG4, V domains shown) VH: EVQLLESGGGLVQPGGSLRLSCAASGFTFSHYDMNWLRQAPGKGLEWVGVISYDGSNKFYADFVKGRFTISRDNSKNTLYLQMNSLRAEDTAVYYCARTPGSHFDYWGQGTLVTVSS VL: QSVLTQPPSASGTPGQRVTISCSGSSSNIGNNAVNWYQQLPGTAPKLLIYYDNLLPSGVPDRFSGSKSGTSASLAISGLRSEDEADYYCSAWDDSLNGVVFGGGTKLTVL
Output: 345
